System: 5:1 Asu-unc-38:Asu-unc-29 receptor, putative (Asu-UNC-38)3(Asu-UNC-29)2, N-subtype nAChR (Ascaris suum, UniProt A7UFK6+A9XWS2)
Construct: full-length cDNAs of both subunits in pT7TS, cRNAs co-injected 5:1 into Xenopus oocytes; no tag
Sequence (A7UFK6 22-513): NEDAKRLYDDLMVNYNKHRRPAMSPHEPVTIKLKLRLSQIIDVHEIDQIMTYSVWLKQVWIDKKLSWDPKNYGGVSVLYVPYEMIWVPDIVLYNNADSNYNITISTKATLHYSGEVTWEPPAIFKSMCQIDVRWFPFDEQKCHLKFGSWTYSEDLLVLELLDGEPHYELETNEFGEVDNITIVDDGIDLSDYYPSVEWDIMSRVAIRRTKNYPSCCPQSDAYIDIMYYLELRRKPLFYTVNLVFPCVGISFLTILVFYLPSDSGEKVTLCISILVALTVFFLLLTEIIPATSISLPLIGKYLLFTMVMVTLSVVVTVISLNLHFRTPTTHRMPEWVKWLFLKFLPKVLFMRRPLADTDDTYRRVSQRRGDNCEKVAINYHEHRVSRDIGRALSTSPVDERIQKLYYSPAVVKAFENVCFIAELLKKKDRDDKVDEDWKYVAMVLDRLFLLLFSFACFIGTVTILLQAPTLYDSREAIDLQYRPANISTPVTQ
Sequence (A9XWS2 27-513): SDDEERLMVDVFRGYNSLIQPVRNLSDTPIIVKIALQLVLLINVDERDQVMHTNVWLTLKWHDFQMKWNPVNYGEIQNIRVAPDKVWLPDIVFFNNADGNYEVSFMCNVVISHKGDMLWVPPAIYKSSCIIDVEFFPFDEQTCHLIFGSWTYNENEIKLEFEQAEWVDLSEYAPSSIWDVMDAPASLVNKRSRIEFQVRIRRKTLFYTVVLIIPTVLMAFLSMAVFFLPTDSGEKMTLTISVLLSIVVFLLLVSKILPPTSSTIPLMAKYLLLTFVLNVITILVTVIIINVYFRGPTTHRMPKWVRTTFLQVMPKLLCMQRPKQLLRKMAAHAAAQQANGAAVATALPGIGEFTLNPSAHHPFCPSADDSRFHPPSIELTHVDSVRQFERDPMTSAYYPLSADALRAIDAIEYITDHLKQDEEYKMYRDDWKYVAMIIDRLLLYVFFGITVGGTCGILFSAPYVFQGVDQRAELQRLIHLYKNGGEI
Assay name: two-electrode voltage clamp, Xenopus oocytes

Chemical smiles | EC50 / µM
CN1CCCN=C1/C=C/c1cccc(O)c1 | 4.07
